Assay Summary: Volume of distribution at steady state in cynomolgus monkey at 1 mg/kg, iv and 10 mg/kg, po
Assay type: ADME, organism-based, Macaca fascicularis
Particulars: in vivo, read-out: Vdss
Readout Kind: Vd (L/kg)

INSERT INTO assay_data (entry_smiles, readout_kind, value_measured) VALUES
  ('CN(C)C(=O)Cn1cc(-c2nc([C@@](C)(c3ccc(-c4cnc(N)nc4)cc3)C3CC3)no2)cn1', 'Vd', 0.5);

* * *

Assay Summary: Efflux ratio of permeability across human Caco2 cells
Assay type: ADME, cell-based
Particulars: Caco-2
Readout Kind: efflux ratio

INSERT INTO assay_data (entry_smiles, value_measured) VALUES
  ('CN(C)C(=O)Cn1cc(-c2nc([C@@](C)(c3ccc(-c4cnc(N)nc4)cc3)C3CC3)no2)cn1', 1.9);

* * *

Tested Target: Arachidonate 5-lipoxygenase-activating protein (Homo sapiens)
Sequence (P20292 whole entry): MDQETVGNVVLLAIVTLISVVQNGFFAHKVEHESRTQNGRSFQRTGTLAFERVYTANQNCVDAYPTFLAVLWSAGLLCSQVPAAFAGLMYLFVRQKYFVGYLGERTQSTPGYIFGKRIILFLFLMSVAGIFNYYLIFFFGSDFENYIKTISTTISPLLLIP
Assay Summary: Inhibition of FLAP in calcimycin-stimulated human whole blood assessed as inhibition of LTB4 synthesis preincubated for 15 mins followed by calcimycin stimulation measured after 30 mins
Listed here are compounds together with their documented IC50.
Readout Kind: IC50 (nM)

INSERT INTO results (entry_smiles, value_modifier, value_measured) VALUES
  ('CN(C)C(=O)Cn1cc(-c2nc([C@@](C)(c3ccc(-c4cnc(N)nc4)cc3)C3CC3)no2)cn1', '=', 45),
  ('Cn1cc(-c2nc([C@](C)(c3ccc(-c4cnc(N)nc4)cc3)C3CCC3)no2)cn1', '=', 3200),
  ('Nc1ncc(-c2ccc(C3(c4noc(-c5cnn(CC(=O)O)c5)n4)CCC3)cc2)cn1', '>', 5000),
  ('Nc1ncc(-c2ccc(C3(c4noc(-c5c[nH]cn5)n4)CCC3)cc2)cn1', '=', 270),
  ('Nc1ncc(-c2ccc(C3(c4noc(-c5ccncn5)n4)CCC3)cc2)cn1', '=', 820);

* * *

Assay Summary: Aqueous equilibrium solubility of the compound in crystalline form in citric acid/disodium phosphate buffer at pH 6.8 after 24 hrs of rotation by HPLC analysis
Type: physicochemical
Readout Kind: log10 of solubility thermodynamic at 24 h (log10 of the value in µg/mL)

INSERT INTO results (molecule, value_measured) VALUES
  ('Cn1cc(-c2nc(C3(c4ccc(-c5cnc(N)nc5)cc4)CCC3)no2)cn1', -1.52),
  ('CN(C)CCn1cc(-c2nc(C3(c4ccc(-c5cnc(N)nc5)cc4)CCC3)no2)cn1', 2.43),
  ('Nc1ncc(-c2ccc(C3(c4noc(-c5cn[nH]c5)n4)CCC3)cc2)cn1', -0.40),
  ('COCCn1cc(-c2nc(C3(c4ccc(-c5cnc(N)nc5)cc4)CCC3)no2)cn1', 0.97),
  ('CN(C)C(=O)Cn1cc(-c2nc(C3(c4ccc(-c5cnc(N)nc5)cc4)CCC3)no2)cn1', 1.30),
  ('CC(C)(O)Cn1cc(-c2nc(C3(c4ccc(-c5cnc(N)nc5)cc4)CCC3)no2)cn1', 0.49),
  ('CC(C)(O)Cn1cc(-c2nc([C@@](C)(c3ccc(-c4cnc(N)nc4)cc3)C3CC3)no2)cn1', 1.51),
  ('CN(C)C(=O)Cn1cc(-c2nc([C@@](C)(c3ccc(-c4cnc(N)nc4)cc3)C3CC3)no2)cn1 [BI 665915]', 1.68);

* * *

Assay Summary: Oral bioavailability in dog at 10 mg/kg
Format: ADME, organism-based, Canis lupus familiaris
Particulars: in vivo
Readout Kind: bioavailability (%)

INSERT INTO measurements (entry_smiles, value_measured) VALUES
  ('CN(C)C(=O)Cn1cc(-c2nc([C@@](C)(c3ccc(-c4cnc(N)nc4)cc3)C3CC3)no2)cn1', 58);

* * *

Assay Summary: Oral bioavailability in rat at 10 mg/kg
Assay type: ADME, organism-based
Particulars: in vivo
Readout Kind: bioavailability (%)

INSERT INTO results (entry_smiles, value_measured) VALUES
  ('CN(C)C(=O)Cn1cc(-c2nc([C@@](C)(c3ccc(-c4cnc(N)nc4)cc3)C3CC3)no2)cn1', 63);

* * *

Assay Summary: Plasma concentration in C57BL/6 mouse at 100 mg/kg, po after 2 hrs
Assay type: ADME, organism-based
Design: dose 100 mg/kg, route oral
Readout Kind: concentration at 2 h (µM)

INSERT INTO results (compound, readout_kind, value_measured) VALUES
  ('CN(C)C(=O)Cn1cc(-c2nc([C@@](C)(c3ccc(-c4cnc(N)nc4)cc3)C3CC3)no2)cn1 [BI 665915]', 'concentration at 2 h', 152);

* * *

Assay Summary: Metabolic stability in human liver microsomes at 1 uM preincubated for 10 mins followed by NADPH addition measured over 60 mins by LC/MS analysis relative to hepatic blood flow
Type: ADME
Particulars: read-out: Stability
Readout Kind: hepatic extraction ratio at 1 h, 1 µM

INSERT INTO assay_data (entry_smiles, value_measured) VALUES
  ('CN(C)CCn1cc(-c2nc([C@@](C)(c3ccc(-c4cnc(N)nc4)cc3)C3CC3)no2)cn1', 0.4),
  ('CN(C)C(=O)Cn1cc(-c2nc([C@@](C)(c3ccc(-c4cnc(N)nc4)cc3)C3CC3)no2)cn1', 0.33),
  ('CC(C)(O)Cn1cc(-c2nc([C@@](C)(c3ccc(-c4cnc(N)nc4)cc3)C3CC3)no2)cn1', 0.24);
